# target-entity: MARCH5 (Homo sapiens, UniProt Q9NX47)
# Construct: expressed in transfected cells; host or cells: HEK293
# Sequence (Q9NX47 whole entry): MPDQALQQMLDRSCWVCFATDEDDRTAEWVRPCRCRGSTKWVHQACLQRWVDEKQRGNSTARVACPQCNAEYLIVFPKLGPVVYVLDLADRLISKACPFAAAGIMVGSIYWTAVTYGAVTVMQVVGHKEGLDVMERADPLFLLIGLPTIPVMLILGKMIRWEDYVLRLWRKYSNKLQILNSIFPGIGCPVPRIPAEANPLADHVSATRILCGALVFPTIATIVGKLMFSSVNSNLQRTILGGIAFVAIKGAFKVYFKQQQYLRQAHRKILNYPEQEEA
# assay-protocol: MARCH5 / γc-luciferase reporter system in co-transfected HEK293 cells (screen of FDA-approved drugs)
# Format: cell-based
# assay-setup: HEK293 cells co-transfected with MARCH5 and γc-luciferase fusion protein; increase = MARCH5 inhibition
Rule: Rel. Luc. Act under 2 gives not fulfilled, otherwise fulfilled.

> print(dat)
                                   molecule  discrete.label
1  O=C(/C=C/c1cccc(S(=O)(=O)Nc2ccccc2)c1)NO   not fulfilled
2  Nc1cc(F)ccc1NC(=O)c1ccc(CNC(=O)/C=C/c2cccnc2)cc1   not fulfilled
3  O=C(O)C[C@H](O)C[C@H](O)/C=C/c1c(C2CC2)nc2ccccc2c1-c1ccc(F)cc1       fulfilled
4               O=C(CCCCCCC(=O)Nc1ccccc1)NO   not fulfilled
5  CCCCc1nc2cc(/C=C/C(=O)NO)ccc2n1CCN(CC)CC   not fulfilled
6  Nc1ccccc1NC(=O)c1ccc(CNc2nccc(-c3cccnc3)n2)cc1   not fulfilled
7  Nc1ccccc1NC(=O)c1ccc(CNC(=O)OCc2cccnc2)cc1   not fulfilled
8  NC(=O)N1CCC(CC(=O)N2CCC([C@H]3c4ncc(Br)cc4CCc4cc(Cl)cc(Br)c43)CC2)CC1       fulfilled
9  O=P(O)(O)C(O)(Cc1cccnc1)P(=O)(O)O [Risedronate Sodium]   not fulfilled

Origin of the recorded values: patent US20260216168A1
